- systemName: T1, human IL-12Rβ2 expressed on cells (human, UniProt Q99665 24-862)
- T1 sequence: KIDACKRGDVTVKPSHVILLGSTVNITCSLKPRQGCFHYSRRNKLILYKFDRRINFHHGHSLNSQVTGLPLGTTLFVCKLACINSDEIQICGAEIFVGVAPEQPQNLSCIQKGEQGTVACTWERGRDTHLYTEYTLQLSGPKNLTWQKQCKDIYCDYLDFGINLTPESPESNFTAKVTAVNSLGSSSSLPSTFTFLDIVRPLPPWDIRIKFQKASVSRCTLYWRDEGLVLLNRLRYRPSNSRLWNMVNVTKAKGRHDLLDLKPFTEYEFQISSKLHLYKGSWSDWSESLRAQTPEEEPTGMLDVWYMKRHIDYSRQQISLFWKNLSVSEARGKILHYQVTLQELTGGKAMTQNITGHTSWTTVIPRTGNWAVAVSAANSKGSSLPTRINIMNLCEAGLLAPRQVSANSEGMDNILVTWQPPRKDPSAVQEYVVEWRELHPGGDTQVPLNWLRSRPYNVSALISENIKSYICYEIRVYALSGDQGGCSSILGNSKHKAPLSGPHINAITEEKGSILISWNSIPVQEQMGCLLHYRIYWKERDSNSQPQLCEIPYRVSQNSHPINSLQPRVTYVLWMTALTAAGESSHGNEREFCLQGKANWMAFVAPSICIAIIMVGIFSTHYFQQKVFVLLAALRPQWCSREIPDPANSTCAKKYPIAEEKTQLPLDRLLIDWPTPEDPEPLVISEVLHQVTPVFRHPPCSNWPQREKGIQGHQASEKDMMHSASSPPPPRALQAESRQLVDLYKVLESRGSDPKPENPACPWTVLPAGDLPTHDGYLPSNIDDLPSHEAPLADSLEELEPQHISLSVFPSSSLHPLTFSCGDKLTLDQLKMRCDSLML
- methodNotes: cell-based or functional assay
The entries below come with measured % Specific Cell Lysis at 0.5 ug/mL values attached.

| binder | % Specific Cell Lysis at 0.5 ug/mL / % |
| --- | --- |
| 20399-FcDE (Fc fusion) VHH-Fc chain: QVQLQESGGGLVQPGGSLRLSCAASGSILRINLMGWYRQVPGKQRELVAEMSTGGSTTYVDSVEGRFTISRDNAKNTVYLQMNSLKPEDTAVYYCNAKAWQLGRLENDDWGQGTQVTVSSAPELLGGPDVFLFPPKPKDTLMISRTPEVTCVVVDVSHEDPEVKFNWYVDGVEVHNAKTKPREEQYNSTYRVVSVLTVLHQDWLNGKEYKCKVSNKALPAPEEKTISKAKGQPREPQVYTLPPSRDELTKNQVSLTCLVKGFYPSDIAVEWESNGQPENNYKTTPPVLDSDGSFFLYSKLTVDKSRWQQGNVFSCSVMHEALHNHYTQKSLSLSPGK | 67.1 |
| anti-IL-12Rβ2-VHH-FcDE clone 20438 (Fc fusion) QVQLQESGGGLVQPGGSLRLSCTASGFAFSTYWMYWIRQSPEKGFEWVSVVNTGGDITYYADSVKGRFTISRDNAKNTLYLQMNSLKPEDTALYYCARDRTTMSYTRTYYRGGQGTQVTVSSAPELLGGPDVFLFPPKPKDTLMISRTPEVTCVVVDVSHEDPEVKFNWYVDGVEVHNAKTKPREEQYNSTYRVVSVLTVLHQDWLNGKEYKCKVSNKALPAPEEKTISKAKGQPREPQVYTLPPSRDELTKNQVSLTCLVKGFYPSDIAVEWESNGQPENNYKTTPPVLDSDGSFFLYSKLTVDKSRWQQGNVFSCSVMHEALHNHYTQKSLSLSPGK | 63.4 |
